Entry source: patent US20250295790A1

molecular target: LecB PAO1 (Pseudomonas aeruginosa); settings: target LecB PAO1
Sequence (Q9HYN5 entry or part of it): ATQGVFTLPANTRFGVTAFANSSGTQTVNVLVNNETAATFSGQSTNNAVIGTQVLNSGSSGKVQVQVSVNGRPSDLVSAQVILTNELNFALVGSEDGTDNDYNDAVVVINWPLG
QUANTITY NAME: pIC50
// scale note: pIC50 = -log10(conc_M); give the bare number

CC(C)CC(NC(=O)CNC(=O)C(C)NC(=O)c1ccc(S(=O)(=O)NCC2OC(C)C(O)C(O)C2O)cc1)C(=O)NC(C)C(=O)NC1CCN(c2cc3c(cc2F)c(=O)c(C(=O)O)cn3C2CC2)C1 (stereo not drawn) [Compound 37] :: 5.44

-- ask Reported pIC50, molecule CC(C)CC(NC(=O)CNC(=O)C(C)NC(=O)c1ccc(S(=O)(=O)NCC2OC(C)C(O)C(O)C2O)cc1)C(=O)NC(C)C(=O)NCC1CCN(c2cc3c(cc2F)c(=O)c(C(=O)O)cn3C2CC2)C1 (stereo not drawn) [Compound 49] : ____
-- reply 5.37

-- ask How about CC(C)C[C@H](NC(=O)CNC(=O)[C@H](C)NC(=O)c1ccc(S(=O)(=O)NC[C@H]2O[C@@H](C)[C@@H](O)[C@@H](O)[C@@H]2O)cc1)C(=O)N[C@@H](C)C(=O)N1CCN(c2cc3c(cc2F)c(=O)c(C(=O)O)cn3C2CC2)CC1 [Compound 25] ?
-- reply 5.33

----------
Measured Ki values are reported for all entries that follow.
biological target: LecB PAO1 (Pseudomonas aeruginosa); settings: target LecB PAO1; calculated as Ki from IC50; read-out: Ki ± s.d.
Respond numerically; units are nM and should not be typed.

Solved entries (count: 2):
CC(C)C[C@H](NC(=O)CNC(=O)[C@H](C)NC(=O)c1ccc(S(=O)(=O)NC[C@H]2O[C@@H](C)[C@@H](O)[C@@H](O)[C@@H]2O)cc1)C(=O)N[C@@H](C)C(=O)N1CCN(c2cc3c(cc2F)c(=O)c(C(=O)O)cn3C2CC2)CC1 :: 1920
CC(C)CC(NC(=O)CNC(=O)C(C)NC(=O)c1ccc(S(=O)(=O)NCC2OC(C)C(O)C(O)C2O)cc1)C(=O)NC(C)C(=O)NC1CCN(c2cc3c(cc2F)c(=O)c(C(=O)O)cn3C2CC2)C1 (stereo not drawn) :: 1430

Alright, here's another compound for you.
-- ask Which Ki is reported with LecB PAO1 (Pseudomonas aeruginosa) for this entry: CC(C)CC(NC(=O)CNC(=O)C(C)NC(=O)c1ccc(S(=O)(=O)NCC2OC(C)C(O)C(O)C2O)cc1)C(=O)NC(C)C(=O)NCC1CCN(c2cc3c(cc2F)c(=O)c(C(=O)O)cn3C2CC2)C1 (stereo not drawn) ?
-- reply 1750

----------
tested on: P. aeruginosa PA14; assay: Antibiotic susceptibility (MIC assay, broth microdilution); assay type: cell-based, Pseudomonas aeruginosa PA14; conditions: Matrix 3: 10% P. aeruginosa culture supernatant in PBS; pre-incubation 3 h
QUANTITY NAME: MIC

Previously resolved entries follow.
CC(C)CC(NC(=O)CNC(=O)C(C)NC(=O)c1ccc(S(=O)(=O)NCC2OC(C)C(O)C(O)C2O)cc1)C(=O)NC(C)C(=O)NCC1CCN(c2cc3c(cc2F)c(=O)c(C(=O)O)cn3C2CC2)C1 (stereo not shown) [Compound 49] :: 1.56 to 6.25 µM
CC(C)C[C@H](NC(=O)CNC(=O)[C@H](C)NC(=O)c1ccc(S[C@@H]2O[C@H](CO)[C@H](O)[C@H](O)[C@H]2O)cc1)C(=O)N[C@@H](C)C(=O)N[C@H]1CCN(c2cc3c(cc2F)c(=O)c(C(=O)O)cn3C2CC2)C1 [Compound 36] :: 0.195 to 3.13 µM

-- ask Any idea what its MIC is? The compound is CC(C)C[C@H](NC(=O)CNC(=O)[C@H](C)NC(=O)c1ccc(S(=O)(=O)NC[C@H]2O[C@@H](C)[C@@H](O)[C@@H](O)[C@@H]2O)cc1)C(=O)N[C@@H](C)C(=O)N1CCN(c2cc3c(cc2F)c(=O)c(C(=O)O)cn3C2CC2)CC1 [Compound 25]
-- reply ≥25 µM

-- ask Next up: CC(C)CC(NC(=O)CNC(=O)C(C)NC(=O)c1ccc(S(=O)(=O)NCC2OC(C)C(O)C(O)C2O)cc1)C(=O)NC(C)C(=O)NC1CCN(c2cc3c(cc2F)c(=O)c(C(=O)O)cn3C2CC2)C1 (stereo not shown) [Compound 37]
-- reply 0.39 to 3.13 µM

----------
molecular target: LecA (Pseudomonas aeruginosa, UniProt Q05097); construct: made in house; assay: Competitive binding assay based on fluorescence polarization with LecA
Sequence (Q05097 whole entry): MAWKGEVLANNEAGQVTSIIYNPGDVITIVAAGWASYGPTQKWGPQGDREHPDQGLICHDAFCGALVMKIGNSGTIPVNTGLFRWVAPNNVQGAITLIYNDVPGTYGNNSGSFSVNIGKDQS
QUANTITY NAME: pKi
Entry type: numeric. Quantity: pKi, the -log10 of concentration in molar units.

-- ask What value of pKi on LecA (Pseudomonas aeruginosa, UniProt Q05097) does O=[N+]([O-])c1ccc(S[C@@H]2O[C@H](CO)[C@H](O)[C@H](O)[C@H]2O)cc1 [pNP-β-D-Gal, p-nitrophenyl-β-thio-galactoside, reference compound] have?
-- reply 4.57

----------
test system: P. aeruginosa PA14; assay: Antibiotic susceptibility (MIC assay, broth microdilution); assay type: cell-based, Pseudomonas aeruginosa PA14; conditions: Matrix 2: 50% human blood plasma + 10% P. aeruginosa culture supernatant in PBS; pre-incubation 3 h
Listing of entries alongside the reported MIC.

CC(C)CC(NC(=O)CNC(=O)C(C)NC(=O)c1ccc(S(=O)(=O)NCC2OC(C)C(O)C(O)C2O)cc1)C(=O)NC(C)C(=O)NCC1CCN(c2cc3c(cc2F)c(=O)c(C(=O)O)cn3C2CC2)C1 (stereo not shown) :: 1.56 to 3.13 µM
CC(C)C[C@H](NC(=O)CNC(=O)[C@H](C)NC(=O)c1ccc(S[C@@H]2O[C@H](CO)[C@H](O)[C@H](O)[C@H]2O)cc1)C(=O)N[C@@H](C)C(=O)N1CCN(c2cc3c(cc2F)c(=O)c(C(=O)O)cn3C2CC2)CC1 :: ≥25 µM
CC(C)CC(NC(=O)CNC(=O)C(C)NC(=O)c1ccc(S(=O)(=O)NCC2OC(C)C(O)C(O)C2O)cc1)C(=O)NC(C)C(=O)NC1CCN(c2cc3c(cc2F)c(=O)c(C(=O)O)cn3C2CC2)C1 (stereo not shown) :: 0.1 to 0.195 µM
O=C(O)c1cn(C2CC2)c2cc(N3CCNCC3)c(F)cc2c1=O [Compound 1, Ciprofloxacin, reference compound] :: 0.156 to 0.25 µM
CC(C)C[C@H](NC(=O)CNC(=O)[C@H](C)NC(=O)c1ccc(S(=O)(=O)NC[C@H]2O[C@@H](C)[C@@H](O)[C@@H](O)[C@@H]2O)cc1)C(=O)N[C@@H](C)C(=O)N1CCN(c2cc3c(cc2F)c(=O)c(C(=O)O)cn3C2CC2)CC1 :: ≥25 µM

-- ask Reported MIC for P. aeruginosa PA14, given CC(C)CC(NC(=O)CNC(=O)C(C)NC(=O)c1ccc(SC2OC(CO)C(O)C(O)C2O)cc1)C(=O)NC(C)C(=O)NCC1CCN(c2cc3c(cc2F)c(=O)c(C(=O)O)cn3C2CC2)C1 (stereo not shown) ?
-- reply 1.56 µM

-- ask Then what about the compound CC(C)C[C@H](NC(=O)CNC(=O)[C@H](C)NC(=O)c1ccc(S[C@@H]2O[C@H](CO)[C@H](O)[C@H](O)[C@H]2O)cc1)C(=O)N[C@@H](C)C(=O)N[C@H]1CCN(c2cc3c(cc2F)c(=O)c(C(=O)O)cn3C2CC2)C1 ?
-- reply 0.1 µM

----------
system: P. aeruginosa PA14; assay: Antibiotic susceptibility (MIC assay, broth microdilution); assay type: cell-based, Pseudomonas aeruginosa PA14; conditions: Matrix 3: 10% P. aeruginosa culture supernatant in PBS; pre-incubation 3 h
QUANTITY NAME: MIC

CC(C)CC(NC(=O)CNC(=O)C(C)NC(=O)c1ccc(SC2OC(CO)C(O)C(O)C2O)cc1)C(=O)NC(C)C(=O)NCC1CCN(c2cc3c(cc2F)c(=O)c(C(=O)O)cn3C2CC2)C1 (centres unmarked) [Compound 48] :: 1.56 to 3.13 µM

Then this compound:
-- ask # get_value(readout='MIC', item= CC(C)C[C@H](NC(=O)CNC(=O)[C@H](C)NC(=O)c1ccc(S[C@@H]2O[C@H](CO)[C@H](O)[C@H](O)[C@H]2O)cc1)C(=O)N[C@@H](C)C(=O)N1CCN(c2cc3c(cc2F)c(=O)c(C(=O)O)cn3C2CC2)CC1 [Compound 24] )
-- reply ≥25 µM

----------
Each item that follows carries a reported pKd.
biological target: LecA (Pseudomonas aeruginosa, UniProt Q05097); construct: made in house; test: Surface plasmon resonance with LecA; format: binding
// field semantics: pKd = negative decimal log of concentration (mol/L)

-- ask Which measured pKd value corresponds to C#CCCN(Cc1ccc(NC(=O)CCc2ccc(O[C@@H]3OC(CO)[C@H](O)C(O)C3O)cc2)cc1)Cc1ccc(NC(=O)CCc2ccc(O[C@@H]3OC(CO)[C@H](O)C(O)C3O)cc2)cc1 (some centres unmarked) ?
-- reply 8.00

-- ask Next record, please: O=C(CCc1ccc(O[C@@H]2OC(CO)[C@H](O)C(O)C2O)cc1)Nc1ccc(CN(CCc2cn(CCOCCOCCOCCNC(=S)Nc3ccc4c(c3)C(=O)OC43c4ccc(O)cc4Oc4cc(O)ccc43)nn2)Cc2ccc(NC(=O)CCc3ccc(O[C@@H]4OC(CO)[C@H](O)C(O)C4O)cc3)cc2)cc1 (some centres unmarked)
-- reply 7.71
